assay-target: T1, PUF4 RNA-binding domain (Saccharomyces cerevisiae, UniProt P25339 537-888)
T1 sequence: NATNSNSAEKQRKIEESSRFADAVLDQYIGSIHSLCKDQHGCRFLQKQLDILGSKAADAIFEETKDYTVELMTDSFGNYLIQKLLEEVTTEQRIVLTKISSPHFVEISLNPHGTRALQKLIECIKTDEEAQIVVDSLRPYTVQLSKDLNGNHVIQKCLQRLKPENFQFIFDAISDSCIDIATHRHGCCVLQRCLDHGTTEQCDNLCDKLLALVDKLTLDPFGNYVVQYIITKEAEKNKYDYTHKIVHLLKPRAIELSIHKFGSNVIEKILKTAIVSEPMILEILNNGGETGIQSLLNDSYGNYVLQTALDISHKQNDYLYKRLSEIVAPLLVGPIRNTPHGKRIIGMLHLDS
protocol-details: Mg; RNA-MaP; 20 mM Na-HEPES pH 7.4, 30 mM KOAc, 0.75 mM MgCl2, 0.1% Tween-20, 5% glycerol, 0.1 mg/mL BSA, 2 mM DTT; 25 C; 0.0125-409.6 nM protein
settings: tags: N-His6-TEV cleaved; C-SNAP kept, Cy3B-labelled; label: tethered on chip by stalled RNA polymerase
reported-endpoint: Kd (nM)
Field format: number, assumed nM, no unit text.

binder	Kd / nM
Id_ii_S2_P4E.2_K4.1_C4.2_[C-2G]_H4.1_A4.1_F4.1_T4.2_[G10A]_[T11A] (ssRNA) RNA: UUUGAUUAAUAUGAUAUCGUUCUUUCUGUUGUAUAUUAAAUUCUUUCUCGAUAUCAUAUUAAUCUUU	0.659

Input line: Consider the binder UCUCUUUGUAAAGUCUCUCUU (ssRNA) [Ic_S1_P4E.1_K4.1_C4.1_H4.1_A4.1_[T5A]_[T7G]_F4.1_[A9C]_T4.1] and give its measured Kd.
Output line: 406

Input line: Consider the binder UCUCUUAUACACUAUUAUCUCUCUU (ssRNA) [Id_ii_S1_P4E.4_K4.3_C4.2_[C-2A]_H4.3_A4.1_F4.1_T4.2_[G10T]_[T11C]] and give its measured Kd.
Output line: 21.8

Input line: Consider the binder Ic_S2_P5E.1_K5.1_C5.1_H5.1_A5.1_[T5G]_F5.1_[T8A]_[T9A]_T5.1 (ssRNA) RNA: UUUGAUUAAUAUGAUAUCGUUCUUUCUUGUAGUAAAAUUCUUUCUCGAUAUCAUAUUAAUCUUU and give its measured Kd.
Output line: 656

Input line: Consider the binder UCUCUUUGUAGUCGUUCUCUU (ssRNA) [Ic_S1_P4E.1_K4.1_C4.1_H4.1_A4.1_[T5G]_[A6T]_[T7C]_F4.1_[T8G]_[A9T]_T4.1] and give its measured Kd.
Output line: 1600

Input line: Consider the binder Ic_S2_P4E.1_K4.1_C4.1_H4.1_A4.1_[T5C]_[A6C]_F4.1_[T8C]_T4.1 (ssRNA) RNA: UUUGAUUAAUAUGAUAUCGUUCUUUCUUGUACCUCAUUCUUUCUCGAUAUCAUAUUAAUCUUU and give its measured Kd.
Output line: 44.1

Input line: Consider the binder Ie_S2_P4E.1_K4.1_C4.1_H4.1_[+2CCTCT]_A4.1_F4.1_T4.1 (ssRNA) RNA: UUUGAUUAAUAUGAUAUCGUUCUUUCUUGCCUCUUAUAUUAUUCUUUCUCGAUAUCAUAUUAAUCUUU and give its measured Kd.
Output line: 122

Input line: Consider the binder Id_ii_S2_P4E.4_K4.3_C4.2_[C-2A]_H4.3_A4.1_F4.1_T4.2_[G10T] (ssRNA) RNA: UUUGAUUAAUAUGAUAUCGUUCUUUCUAUACACUAUUAUUUUCUUUCUCGAUAUCAUAUUAAUCUUU and give its measured Kd.
Output line: 12.3

Input line: Consider the binder ACAAACGUACACUAUAACACAAAC (ssRNA) [Id_ii_S3_P3E.4_K3.3_C3.2_[C-2G]_H3.3_A3.1_F3.1_T3.2_[T9A]_[A10C]] and give its measured Kd.
Output line: 100

Input line: Consider the binder UCUCUUUGUAAACUGGUCUCUU (ssRNA) [Ic_S1_P5E.1_K5.1_C5.1_H5.1_A5.1_[T5A]_[T6A]_[A7C]_F5.1_[T9G]_[A10G]_T5.1] and give its measured Kd.
Output line: 16.9
